# GI50 values compiled below
system: DMS-273; assay: NCI tumour cell line growth inhibition, 48 h
Calls of active or inactive are those of the source. Cut-off read from the data, not from the text of the source: active = GI50 up to about 1.1 µM and inactive = higher.

Look over these answered cases.
{"columns": ["COMPOUND", "GI50"],
 "data": [
  ["CC1(C)OC(=O)C(c2ccsc2)C(=O)O1", "> 100 µM (inactive)"],
  ["C[N+]12c3ccccc3O[B-]1(c1ccccc1)Oc1ccccc12 (stereo unspecified)", "29.2 µM (inactive)"],
  ["Cc1nc(N)nc(N)c1CCCCc1ccccc1", "4.7 µM (inactive)"],
  ["COc1cc2ccc1-c1cc(ccc1O)CC1c3cc4c(cc3CCN1C)Oc1c(OC)cc3c(c1O4)C(C2)N(C)CC3 (stereo unspecified)", "1.78 µM (inactive)"]
]}

Briefly, GI50 measured for [O-][Cl+3]([O-])([O-])O.c1ccc(/N=c2\snc(-c3ccccc3)s2)cc1 : > 100 µM (inactive)

Record CN/C(=N/C#N)NCc1ccccc1 , field GI50: > 100 µM (inactive)

For this compound ( COC(=O)CC(C(C(=O)OCc1ccccc1)C(C)O)N1C(=O)OCC1c1ccccc1 (stereo unspecified) ), measured GI50 is 66.1 µM (inactive)

---

test system: SK-OV-3; assay: NCI tumour cell line growth inhibition, 48 h
Calls of active or inactive are those of the source. No stated cut-off is given here; in the data, active = GI50 up to about 1.1 µM and inactive = higher.
Quick reference for GI50 among some compounds

Here's what some known entries look like.
{"columns": ["COMPOUND", "MEASURED ON", "GI50"],
 "data": [
  ["CC1=NOC2(C1)/C(=N/O)CCC/C2=N\\O (stereo unspecified)", "SK-OV-3", "> 100 µM (inactive)"],
  ["COc1ccc(-c2c3ccccc3c(-c3ccc(OC)cc3)c3ccccc23)cc1", "SK-OV-3", "> 100 µM (inactive)"],
  ["CC1=CC(O)C(C(O)(C(F)(F)F)C(F)(F)F)C(C)(C)C1 (stereo unspecified)", "SK-OV-3", "> 10 µM (inactive)"],
  ["C1CCC(CC2CCC(NC3=NCCO3)CC2)CC1 (stereo unspecified)", "SK-OV-3", "20.9 µM (inactive)"],
  ["Cc1nc2c(o1)C(=O)c1ccccc1/C2=N\\c1ccccc1", "SK-OV-3", "17.4 µM (inactive)"]
]}

Query Nc1nc(N)c(Cn2ccnc2)c(O)n1 yields GI50 of > 100 µM (inactive)

---

system: SF-539; assay: NCI tumour cell line growth inhibition, 48 h
The source made the active and inactive calls. No stated cut-off is given here; in the data, active = GI50 up to about 1.1 µM and inactive = higher.
Could you please pick one outcome from this set? t (active), f (inactive)

Observe how each entry below is paired with its result.
{"columns": ["COMPOUND", "DISCRETE LABEL"],
 "data": [
  ["CC(CO)(CBr)COC(=O)c1cc(Br)c(N)c(Br)c1 (stereo unspecified)", "f"],
  ["Nc1n[n+](-c2ccccc2)no1", "f"],
  ["CN(C)CC1(C)CC/C(=C\\c2ccc(Cl)cc2)C1=O (stereo unspecified)", "f"],
  ["COc1ccc(/C=C/C(=O)N[C@@H]2C(=O)N3[C@@H]2SC(C)(C)[C@@H]3C(=O)O)cc1", "f"]
]}

Problem: Given CCOC(=O)[C@@]12CCC(C1=O)[C@](C)(O)C[C@@H]2c1ccccc1 , state the outcome it received in this test.
Solution: f

Problem: Identify the outcome logged in this assay for the compound shown: O=C(Cn1c(=O)oc2ccc(C(=O)c3ccccc3Cl)cc21)c1ccc([N+](=O)[O-])cc1
Solution: f

Problem: // param item: O=C1/C(=C/c2ccco2)N=C2Sc3c([nH]cnc3=O)N12 ; yields the recorded call
Solution: f

Problem: Lab log entry: c1ccc(-c2ccc(/N=N/N3CCCC3)cc2)cc1 — outcome as called in the assay?
Solution: f
